Study target: EGFR(L858R/T790M) (Homo sapiens, UniProt P00533, L858R/T790M)
Construct: purchased from Carna (GST-a.a. 669-1210)
Sequence (P00533 669-1210 T790M/L858R): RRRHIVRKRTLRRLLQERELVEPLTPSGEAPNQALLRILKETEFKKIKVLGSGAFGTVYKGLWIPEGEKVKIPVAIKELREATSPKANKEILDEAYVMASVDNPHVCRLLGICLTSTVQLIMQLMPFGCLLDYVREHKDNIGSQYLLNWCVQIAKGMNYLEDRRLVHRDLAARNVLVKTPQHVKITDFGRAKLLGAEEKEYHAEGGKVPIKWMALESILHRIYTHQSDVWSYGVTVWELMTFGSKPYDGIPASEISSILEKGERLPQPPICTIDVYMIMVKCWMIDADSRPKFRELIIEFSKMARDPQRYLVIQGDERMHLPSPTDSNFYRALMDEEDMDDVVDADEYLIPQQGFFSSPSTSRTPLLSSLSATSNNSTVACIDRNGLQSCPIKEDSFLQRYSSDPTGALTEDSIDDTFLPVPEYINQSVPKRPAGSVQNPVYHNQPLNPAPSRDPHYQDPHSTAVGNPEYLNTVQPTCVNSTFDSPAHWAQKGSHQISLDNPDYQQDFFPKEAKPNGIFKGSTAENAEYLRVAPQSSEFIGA
Assay explanation: EGFR biochemical assay (HTRF), IC50 determinations
Condition: EGFR (L858R/T790M) with no pre-incubation; read-out: IC50 (μM) Column A
Lab note: compare IC50 with 0.1 µM, writing true (1) if less and false (0) if equal or more.

# Molecule, Cat
measured = [
    ("C=CC(=O)N1CCOCC(n2c(NC(=O)c3ccccc3)nc3cccc(-c4nc(C)no4)c32)C1 (centres unmarked)", "false (0)"),
    ("C/C=C/C(=O)N1CCCC[C@@H](n2c(NC(=O)c3ccnc(C)c3)nc3ccc(OCCN4CCCC4)c(Cl)c32)C1", "true (1)"),
    ("COc1cc2nc(NC(=O)c3ccnc(C)c3)n([C@@H]3CCCCN(C(=O)/C=C/CN(C)C)C3)c2cc1Cl", "true (1)"),
    ("Cc1cccc2nc(NC(=O)c3cccc(F)c3)n(C3CCCCN(C(=O)/C=C/CN(C)C)C3)c12 (centres unmarked)", "true (1)"),
    ("C=CC(=O)N1CCCC[C@@H](n2c(NC(=O)c3cc(C)nc(C)c3)nc3cc(CN4CCCC4)cc(C)c32)C1", "true (1)"),
    ("Cc1cc(C(=O)Nc2nc3cccc(C)c3n2[C@@H]2CCCCN(C(=O)/C=C/CN(C)C)C2)cc(Cl)n1", "true (1)"),
    ("C=CC(=O)N1CCCCC(n2c(NC(=O)c3ccccc3)nc3cccc(-c4nc(C)no4)c32)C1 (centres unmarked)", "false (0)"),
    ("Cc1cc(C(=O)Nc2nc3cccc(Cl)c3n2[C@@H]2CCCCN(C(=O)/C=C/C(C)(C)N(C)C)C2)ccn1", "false (0)"),
    ("C=CC(=O)N1CCC(n2c(NC(=O)c3cccc(C(F)(F)F)c3)nc3cc(C)ccc32)CC1", "false (0)"),
    ("Cc1ncccc1C(=O)Nc1nc2cccc(C)c2n1C1CCCCN(C(=O)/C=C/CN(C)C)C1 (centres unmarked)", "false (0)"),
    ("Cc1cccc2nc(NC(=O)c3ccnc(C(F)(F)F)c3)n([C@H]3CCCCN(C(=O)/C=C/CN(C)C)C3)c12 (single isomer, unassigned)", "false (0)"),
    ("Cc1cccc2nc(NC(=O)c3cc(F)c(F)c(F)c3)n(C3CCCCN(C(=O)/C=C/CN(C)C)C3)c12 (centres unmarked)", "true (1)"),
    ("Cc1cccc2nc(NC(=O)c3ccn(C)c(=O)c3)n(C3CCCCN(C(=O)/C=C/CN(C)C)C3)c12 (centres unmarked)", "true (1)"),
    ("C=CC(=O)N1CCCC[C@H](n2c(NC(=O)c3cccc(C(F)(F)F)c3)nc3cccc(C)c32)C1 (single isomer, unassigned)", "false (0)"),
]

---

IC50 listing for selected molecules.
Study target: EGFR(L858R/T790M) (Homo sapiens, UniProt P00533, L858R/T790M)
Construct: purchased from Carna (GST-a.a. 669-1210)
Assay explanation: EGFR biochemical assay (HTRF), IC50 determinations
Condition: EGFR (L858R/T790M) with no pre-incubation; read-out: IC50 (μM) Column A
Quantity measured: IC50 (µM)

# Molecule, Quantity measured, Limit sign, Reported measurement
measured = [
    ("Cc1cccc2nc(NC(=O)c3cccnn3)n(C3CCCCN(C(=O)/C=C/CN(C)C)C3)c12 (stereo not shown)", "IC50", "=", 0.12),
    ("C=CC(=O)N1CCCCC(n2c(NC(=O)c3ccccc3)nc3cccc(C)c32)C1 (stereo not shown)", "IC50", "<", 0.001),
    ("Cc1cccc2nc(NC(=O)c3cncc(C(F)(F)F)c3)n([C@@H]3CCCCN(C(=O)/C=C/CN(C)C)C3)c12", "IC50", "=", 0.003),
    ("COc1cncc(C(=O)Nc2nc3cccc(C)c3n2[C@@H]2CCCCN(C(=O)/C=C/CN(C)C)C2)c1", "IC50", "=", 0.005),
    ("Cc1cccc2nc(NC(=O)c3ccn4cncc4c3)n(C3CCCCN(C(=O)/C=C/CN(C)C)C3)c12 (stereo not shown)", "IC50", "=", 0.003),
    ("Cc1cccc2nc(NC(=O)c3ccncn3)n(C3CCCCN(C(=O)/C=C/CN(C)C)C3)c12 (stereo not shown)", "IC50", "=", 0.062),
    ("C=CC(=O)N1CCC[C@@H](n2c(NC(=O)c3cccc(C(F)(F)F)c3)nc3cccc(C)c32)C1", "IC50", "=", 0.038),
]

From: patent US9440957B2
